// reported IC50 for each item listed
molecular target: purified HLA DRB1*0101 (Homo sapiens, UniProt P01903+P01911, A100R/D57E/F55L/F60I/F76Y/I96L/L162R/M171V/P40L/Q125E/R42F/V115G/Y59C); construct: purified from EBV transformed homozygous cell lines or single MHC allele transfected 721.221, C1R, or fibroblast lines; made in house; experiment: HLA-DR radioligand binding inhibition assay, DRB1*0101; details: IC50 nM purified HLA DRB1 *0101, purified HLA DRB1*0101
All answers are understood in nM, so give the number only.

[[record]]
molecule = "CSCC[C@H](NC(=O)[C@@H](NC(=O)[C@H](CO)NC(=O)[C@H](CC(=O)O)NC(=O)[C@@H](NC(=O)[C@H](Cc1c[nH]cn1)NC(=O)[C@H](CC(N)=O)NC(=O)[C@H](CCC(=O)O)NC(=O)[C@@H](NC(=O)[C@H](CC(C)C)NC(=O)CNC(=O)CNC(=O)[C@H](CCC(=O)O)NC(=O)[C@@H](N)CO)C(C)C)C(C)C)[C@@H](C)O)C(=O)N[C@@H](CC(N)=O)C(=O)O [Peptide 9019.0183]"
readout_unit = "nM"
observed_measurement = 1150


Report measured IC50; entry is CC[C@H](C)[C@H](NC(=O)[C@H](CCCNC(=N)N)NC(=O)[C@H](Cc1c[nH]c2ccccc12)NC(=O)[C@H](CO)NC(=O)[C@H](Cc1ccc(O)cc1)NC(=O)[C@@H](N)CCC(N)=O)C(=O)N[C@@H](CC(N)=O)C(=O)NCC(=O)N[C@H](C(=O)N1CCC[C@H]1C(=O)N[C@@H](CCC(N)=O)C(=O)N[C@@H](CCC(N)=O)C(=O)N[C@@H](Cc1c[nH]cn1)C(=O)N[C@H](C(=O)N[C@@H](CCC(N)=O)C(=O)O)[C@@H](C)O)[C@@H](C)CC [Peptide 9019.0138]
472

Answer with the recorded IC50 of CC[C@H](C)[C@H](NC(=O)CNC(=O)[C@H](CC(C)C)NC(=O)CNC(=O)[C@H](CCC(N)=O)NC(=O)[C@H](CC(C)C)NC(=O)[C@@H](NC(=O)[C@H](CC(C)C)NC(=O)[C@@H](N)CO)[C@@H](C)O)C(=O)N[C@@H](CO)C(=O)N[C@@H](Cc1c[nH]c2ccccc12)C(=O)N[C@@H](CC(C)C)C(=O)NCC(=O)N[C@@H](CC(C)C)C(=O)N[C@@H](CCCNC(=N)N)C(=O)O [Peptide 9019.0055] only.
93

Determine from records and report IC50 for CC[C@H](C)[C@H](N)C(=O)N[C@@H](CCC(=O)O)C(=O)N[C@@H](C)C(=O)N[C@@H](CC(C)C)C(=O)N[C@@H](CC(C)C)C(=O)N[C@@H](CCC(=O)O)C(=O)N[C@@H](CO)C(=O)N[C@@H](CO)C(=O)N[C@@H](CC(C)C)C(=O)N[C@@H](CCCNC(=N)N)C(=O)N[C@@H](CCC(N)=O)C(=O)N[C@@H](C)C(=O)N[C@@H](CCC(N)=O)C(=O)N[C@@H](CCC(N)=O)C(=O)N[C@@H](CC(N)=O)C(=O)O [Peptide 9019.0172]
2610

---

target: purified HLA DRB1*0101 (Homo sapiens, UniProt P01903+P01911, A100R/D57E/F55L/F60I/F76Y/I96L/L162R/M171V/P40L/Q125E/R42F/V115G/Y59C); construct: purified from EBV transformed homozygous cell lines or single MHC allele transfected 721.221, C1R, or fibroblast lines; made in house; assay: HLA-DR radioligand binding inhibition assay, DRB1*0101; conditions: IC50 nM purified HLA DRB1 *0101, purified HLA DRB1*0101
Ends that are not written are not given here.
READOUT TYPE: IC50 (nM)

[[record]]
sequence_chain = "LPRVGCPALPLPPPP [Peptide 9019.0173]"
observed_measurement = 1910

[[record]]
sequence_chain = "ELPLQALVMGEGTCE [Peptide 9019.0182]"
observed_measurement = 1500


---

molecular target: purified HLA DRB1*0101 (Homo sapiens, UniProt P01903+P01911, A100R/D57E/F55L/F60I/F76Y/I96L/L162R/M171V/P40L/Q125E/R42F/V115G/Y59C); construct: purified from EBV transformed homozygous cell lines or single MHC allele transfected 721.221, C1R, or fibroblast lines; made in house; test: HLA-DR radioligand binding inhibition assay, DRB1*0101; conditions: IC50 nM purified HLA DRB1 *0101, purified HLA DRB1*0101
Recorded IC50 for the following compounds
Write the answer as a number in nM, unit excluded.

Below, each entry is followed by its recorded IC50 result.
[[record]]
compound = "CSCC[C@H](NC(=O)[C@H](C)NC(=O)[C@H](CC(C)C)NC(=O)[C@@H]1CCCN1C(=O)[C@H](Cc1ccccc1)NC(=O)[C@@H](NC(=O)[C@H](CCC(=O)O)NC(=O)[C@H](CCC(=O)O)NC(=O)[C@@H](N)CCC(=O)O)C(C)C)C(=O)N[C@@H](CC(N)=O)C(=O)N[C@@H](Cc1ccc(O)cc1)C(=O)N[C@@H](CC(C)C)C(=O)N[C@@H](CC(=O)O)C(=O)N[C@@H](CCCNC(=N)N)C(=O)N[C@@H](Cc1ccccc1)C(=O)O [Peptide 9019.0152]"
readout_unit = "nM"
observed_measurement = 850

[[record]]
compound = "CC[C@H](C)[C@H](NC(=O)CNC(=O)[C@@H](NC(=O)[C@@H](NC(=O)[C@H](C)NC(=O)CNC(=O)[C@H](C)NC(=O)[C@H](CO)NC(=O)[C@H](CC(C)C)NC(=O)CNC(=O)[C@@H]1CCCN1C(=O)[C@@H](N)CO)[C@@H](C)O)C(C)C)C(=O)N[C@@H](CCSC)C(=O)N[C@H](C(=O)NCC(=O)O)[C@@H](C)CC [Peptide 9019.0144]"
readout_unit = "nM"
observed_measurement = 3510


Determine from records and report IC50 for CC(C)C[C@H](NC(=O)[C@H](CC(N)=O)NC(=O)[C@H](C)NC(=O)CNC(=O)[C@H](CO)NC(=O)[C@H](CC(C)C)NC(=O)[C@H](Cc1ccc(O)cc1)NC(=O)[C@H](CO)NC(=O)[C@@H](N)CO)C(=O)N[C@@H](CC(N)=O)C(=O)N[C@@H](CC(C)C)C(=O)N[C@@H](CO)C(=O)N[C@@H](CS)C(=O)N[C@@H](Cc1c[nH]cn1)C(=O)N[C@@H](CO)C(=O)O [Peptide 9019.0137]
4

---

molecular target: purified HLA DRB3*0101 (Homo sapiens, UniProt P01903+P79483); construct: purified from EBV transformed homozygous cell lines or single MHC allele transfected 721.221, C1R, or fibroblast lines; made in house; test: HLA-DR radioligand binding inhibition assay, DRB3*0101; conditions: IC50 nM purified HLA DRB3 *0101, purified HLA DRB3*0101
READOUT TYPE: IC50

[[record]]
molecule = "CSCC[C@H](NC(=O)CNC(=O)[C@H](CC(C)C)NC(=O)CNC(=O)[C@H](Cc1ccc(O)cc1)NC(=O)[C@@H](N)CS)C(=O)N[C@@H](CCC(=O)O)C(=O)N[C@@H](Cc1c[nH]cn1)C(=O)N[C@@H](CC(C)C)C(=O)N[C@@H](CCCNC(=N)N)C(=O)N[C@@H](CCC(=O)O)C(=O)N[C@H](C(=O)N[C@@H](CCCNC(=N)N)C(=O)N[C@@H](C)C(=O)N[C@H](C(=O)O)C(C)C)C(C)C [Peptide 9019.0044]"
observed_measurement = "> 20000 nM"

[[record]]
molecule = "CC[C@H](C)[C@H](NC(=O)[C@H](CO)NC(=O)[C@@H]1CCCN1C(=O)[C@H](CCCCN)NC(=O)[C@@H]1CCCN1C(=O)[C@H](CC(C)C)NC(=O)[C@H](CCC(=O)O)NC(=O)[C@H](C)NC(=O)[C@H](CO)NC(=O)[C@@H](NC(=O)[C@@H](NC(=O)[C@@H](NC(=O)[C@@H](N)[C@@H](C)O)[C@@H](C)CC)[C@@H](C)O)C(C)C)C(=O)N[C@@H](CO)C(=O)N[C@@H](CO)C(=O)O [Peptide 9019.0132]"
observed_measurement = "> 20000 nM"


Provide only the value of recorded IC50 for CC[C@H](C)[C@H](NC(=O)[C@H](CS)NC(=O)[C@H](CC(C)C)NC(=O)[C@H](CCCCN)NC(=O)[C@H](CCC(=O)O)NC(=O)[C@H](C)NC(=O)[C@@H](NC(=O)[C@H](CC(C)C)NC(=O)[C@@H]1CCCN1C(=O)[C@@H](NC(=O)[C@@H](N)[C@@H](C)O)[C@@H](C)CC)[C@@H](C)O)C(=O)N[C@@H](Cc1ccc(O)cc1)C(=O)N[C@H](C(=O)N[C@@H](CC(=O)O)C(=O)N[C@@H](CC(N)=O)C(=O)O)[C@@H](C)O [Peptide 1622.01]
> 20000 nM
